Biological target: T1, TNFR1 (Homo sapiens, UniProt P19438)
T1 chain: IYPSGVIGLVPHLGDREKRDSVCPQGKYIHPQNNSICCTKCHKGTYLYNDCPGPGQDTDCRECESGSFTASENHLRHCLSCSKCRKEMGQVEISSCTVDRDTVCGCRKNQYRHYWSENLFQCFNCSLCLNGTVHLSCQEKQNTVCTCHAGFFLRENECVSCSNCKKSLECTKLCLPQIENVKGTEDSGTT
Assay: yeast display SC50
Assay readout: apparent Kd (screen) (nM)
# unit: nM | format: bare number

Ask: Find the recorded apparent Kd (screen) belonging to M2Y (designed binder) SYEEEVEKAAKEYEKKKKEAIEKHLEKLKAKDKEAAERFLKELEEAAKEYAKDEAKTMSEEEAKRRAKKYKEKVLLSELSEEEQKEIKEAEEKLVRTILKYVEEAAK and report it.
Result: 0.49
